Could you please report measured β-Arrestin EC50 for the items listed next?
target: chemokine receptor CXCR7 (UniProt P25106 1-362, limits assumed); assay: cell-based or functional assay
Sequence (P25106 whole entry): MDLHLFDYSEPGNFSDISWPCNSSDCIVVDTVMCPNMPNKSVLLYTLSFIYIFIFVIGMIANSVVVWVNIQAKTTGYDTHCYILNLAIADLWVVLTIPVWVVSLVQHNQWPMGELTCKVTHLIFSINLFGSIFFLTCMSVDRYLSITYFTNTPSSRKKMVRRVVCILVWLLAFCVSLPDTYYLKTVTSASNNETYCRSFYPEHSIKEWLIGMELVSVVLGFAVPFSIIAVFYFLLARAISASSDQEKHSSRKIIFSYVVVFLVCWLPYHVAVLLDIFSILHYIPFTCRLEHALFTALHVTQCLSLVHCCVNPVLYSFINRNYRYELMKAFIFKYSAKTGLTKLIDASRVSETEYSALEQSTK
Square brackets hold non-standard residues; d marks the D form. dPro(cis-4-NH2) = N[C@H]1CN[C@@H](C(=O)O)C1; Oic = O=C(O)[C@@H]1C[C@@H]2CCCC[C@@H]2N1; Tic = O=C(O)[C@@H]1Cc2ccccc2CN1; Orn(Ar2) = not defined here
Reply numerically in nM, unit not repeated.

stdin: Give the reported value of β-Arrestin EC50 for this record: cyclo(W[dF]WR[dPro(cis-4-NH2)][Oic]) (SMILES N=C(N)NCCC[C@@H]1NC(=O)[C@H](Cc2c[nH]c3ccccc23)NC(=O)[C@@H](Cc2ccccc2)NC(=O)[C@H](Cc2c[nH]c3ccccc23)NC(=O)[C@@H]2C[C@@H]3CCCC[C@@H]3N2C(=O)[C@H]2C[C@@H](N)CN2C1=O) [cyclo(-Trp-^DPhe-Trp-Arg-^DPro((4R)NH2)-Oic-)]
stdout: 20.9

stdin: Quickly give me recorded β-Arrestin EC50 for cyclo(I[dR]RW[dP]S) (SMILES CC[C@H](C)[C@@H]1NC(=O)[C@H](CO)NC(=O)[C@H]2CCCN2C(=O)[C@H](Cc2c[nH]c3ccccc23)NC(=O)[C@H](CCCNC(=N)N)NC(=O)[C@@H](CCCNC(=N)N)NC1=O) [cyclo(-Ile-^DArg-Arg-Trp-^DPro-Ser-)]
stdout: 12.8

stdin: Dear colleague, please send me the reported β-Arrestin EC50 for cyclo([Ala(Tet)][dF]WR[dPro(cis-4-NH2)][Tic]) [cyclo(-Ala(Tet)-^DPhe-Trp-Arg-^DPro((4R)NH2)-Tic-)] when you can.
stdout: 28.1

stdin: Provide only the value of recorded β-Arrestin EC50 for cyclo(I[dR][Orn(Ar2)]W[dP]T) (reading uncertain; also: printed as cyclo(-Ile-^DArg-Orn(Ar2)-Trp-^DPro-Thr-)) [cyclo(-Ile-^DArg-Orn(Ar2)-Trp-^DPro-Thr-)]
stdout: 453
